- System: AncSZ;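 note: 11-residue human phosphosite peptides and single-mutation variants displayed on the E. coli surface, counted by deep sequencing, each peptide's frequency after selection divided by its frequency in the unselected input library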;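 note: frequency after pTyr selection over input frequency; kinase dosed for 20-30% of maximal phosphorylation in three min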
- test: phosphorylation enrichment, bacterial display (enrichment ratio); higher = better substrate or ligand; peptides without Tyr show the background
// reported phosphorylation enrichment per item
readout-kind: phosphorylation enrichment

GISDEYHMIRH [GCDH_Y398_V400M] :: 1.07
QAEEWYFGKMG [YES1_Y159] :: 1.28
CNLDTYQKRLR [PLA2G2D_Y126_R121C] :: 0.65
RGDTVYTVNCM [KBTBD13_Y404_R408C] :: 0.937
FDNPVYQKTTE [LDLR_Y828] :: 0.737
PLDVEYFTLQI [TP53_Y327_G325V] :: 2.47
NTGNFYDLFGG [PTPN11_Y63_D61N_YF] :: 0.844
DGFIDYAEFAK [MCFD2_Y138_YF] :: 1.13
QTLTDYDIRFF [CSNK2A1_Y131_YF] :: 1.16
DFLEKYFKFGS [NNMT_Y24_YF] :: 1.12
IIEDPYYGNDS [ACP1_Y132] :: 1.46
NHYKRYNLCAE [PTEN_Y68_I67R] :: 0.74
KLQKKYGPIFS [CYP17A1_Y60_YF] :: 0.555
GRRGQYVMLSE [TTC7A_Y396] :: 0.692
